Test system: HIV-1 RF virus in CEM-SS cells
Test: HIV-1 cell protection assay (XTT dye reduction)
Format: cell-based
Conditions: Human immunodeficiency virus 1, 144 h; RF strain of HIV-1, CEM-SS cells, XTT read-out after six days; read-out: EC50
experimental-readout: log10 of EC50 (log10 of the value in nM)
Reminder: these figures are log10 of reported EC50, in nM before transformation.

Example results:
O=c1c2ncc3c(c(CN4CCCC4)cn3Cc3ccc(F)cc3)c2ccn1O [Example 6] :: 0.72
O=c1c2ncc3c(c(CN4CCC(CO)CC4)cn3Cc3ccc(F)cc3)c2ccn1O [Example 5] :: 1.08
CN(CCc1cn(Cc2ccc(F)cc2)c2cnc3c(c12)CCN(O)C3=O)C1CCOCC1 [Example 108] :: 1.20
O=C1c2ncc3c(c(CCN4CCC(F)(F)C4)cn3Cc3ccc(F)cc3)c2CCN1O [Example 109] :: 0.00
COCCOCCCc1cn(Cc2ccc(F)cc2)c2cnc3c(c12)CCN(O)C3=O [Example 106] :: -0.02

Could you share which log10 of EC50 value was measured for N#Cc1cccc(Cn2ccc3c4c(ncc32)C(=O)N(O)CC4)c1 [Example 85] ? 2.66
